These entries and their values trace back to patent US7683077B2.

The entries below are paired with their reported IC50.
Target: Human 5-HT7a receptor (Homo sapiens, UniProt P34969)
Construct: host or cells: CHO-K1 (h5HT7-C1 cells)
Sequence (P34969 1-445 isoform P34969-2): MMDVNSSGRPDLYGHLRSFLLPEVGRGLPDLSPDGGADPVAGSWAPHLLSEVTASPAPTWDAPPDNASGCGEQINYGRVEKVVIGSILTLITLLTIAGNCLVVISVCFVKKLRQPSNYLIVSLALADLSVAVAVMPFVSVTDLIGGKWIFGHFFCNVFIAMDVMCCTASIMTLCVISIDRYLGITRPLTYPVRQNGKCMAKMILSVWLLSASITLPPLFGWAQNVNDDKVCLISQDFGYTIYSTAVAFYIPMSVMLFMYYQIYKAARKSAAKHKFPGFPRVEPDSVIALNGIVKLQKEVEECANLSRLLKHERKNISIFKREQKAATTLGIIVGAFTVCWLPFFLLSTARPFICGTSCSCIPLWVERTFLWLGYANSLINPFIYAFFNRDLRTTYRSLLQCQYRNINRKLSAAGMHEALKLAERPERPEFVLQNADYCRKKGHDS
Assay: Receptor binding assay (RBA) using 5HT-7 expression cells
Observed Property: IC50 (µM)

CCN1CCC(=C(c2cccc(Cl)c2)c2cc(OC)ccc2OC)CC1	0.0158
COc1ccccc1C(=C1CCN(C)CC1)c1ccc(Cl)c(Cl)c1	0.0316

----------
Target: Human 5-HT7a receptor (Homo sapiens)
Construct: host or cells: CHO-K1 (h5HT7-C1 cells)
Assay: Receptor binding assay (RBA) using 5HT-7 expression cells
Conditions: displacement of 2-[125I]-(+)-iodo-lysergic acid diethylamide, membranes of human 5-HT7a CHO-K1 cells; read-out: pIC50 (converted)
Observed Property: IC50 (nM)

CCCCN1CCC(=C(c2cccc(Cl)c2)c2cc(OC)ccc2OC)CC1	100
COc1ccccc1C(=C1CCN(C)CC1)c1ccc(C)s1	39.8
COc1ccc(C)cc1C(=C1CCN(C)CC1)c1cccc(Cl)c1	31.6
COc1ccc(OC)c(C(=C2CCNCC2)c2cccc(Cl)c2)c1	20
COc1ccccc1C(=C1CCN(C)CC1)c1ccc(Cl)s1	39.8
CCCN1CCC(=C(c2cccc(Cl)c2)c2ccccc2OC)CC1	31.6
COc1ccccc1C(=C1CCN(C)CC1)c1cccc(Cl)c1	39.8
COc1ccccc1C(=C1CCN(CCNS(=O)(=O)c2cc(Cl)ccc2Cl)CC1)c1cccc(Cl)c1	10
COc1ccccc1C(=C1CCN(CCCNC(=O)OC(C)(C)C)CC1)c1cccc(Cl)c1	100
